TARGET_ENTITY: GPR78 (Homo sapiens)
Construct: Full length open reading frames (ORFS) of GPR78 and GPR26 were obtained with PCR; expressed in transfected cells; host or cells: HEK293/cre-luc
Sequence (Q96P69 whole entry): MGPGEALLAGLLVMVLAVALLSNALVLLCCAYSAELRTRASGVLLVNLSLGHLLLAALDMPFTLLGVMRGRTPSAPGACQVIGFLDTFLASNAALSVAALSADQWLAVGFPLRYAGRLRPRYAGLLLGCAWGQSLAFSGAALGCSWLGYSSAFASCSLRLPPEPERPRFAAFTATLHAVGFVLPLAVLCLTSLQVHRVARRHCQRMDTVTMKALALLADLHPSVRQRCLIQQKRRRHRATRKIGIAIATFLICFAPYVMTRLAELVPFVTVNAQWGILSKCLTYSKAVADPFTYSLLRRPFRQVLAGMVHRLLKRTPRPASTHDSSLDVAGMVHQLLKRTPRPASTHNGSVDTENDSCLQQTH
ASSAY_METHOD_TEXT: cre-luciferase cAMP reporter assay in GPR78-transfected HEK293/cre-luc cells
Assay type: cell-based
ASSAY_SETUP: FIG. 2A; read-out: EC50, induction of cAMP
MEASURED_PARAMETER: pEC50
To interpret pEC50, take it as minus log10 of a concentration measured in moles per litre.

In: Recorded pEC50 for O=c1c(-c2ccc(O)cc2)coc2cc(O)cc(O)c12 , please?
Out: 5.15
